Property: log10 TGI; scope: individual molecules
# System: KM12 colon
# Test Summary: NCI tumour cell line growth inhibition, 48 h
Give log10 of TGI, with TGI taken in µM.

The examples below pair each entry with its known result.
Molecule	log10 TGI
CCC[CH2][Sn]1([CH2]CCC)[O]CC(CN2CCCCC2)[O]1 (stereo unspecified)	0.32
COc1cccc(C2=C(c3cn(C)c4ccc(Cl)cc34)C(=O)NC2=O)c1	1.06
CCOC(=O)C1=c2[nH]c3cccc4cccc(c43)n2C(=O)CC1	1.95

Recorded log10 TGI for O=C1/C(=C\c2cccc(Oc3ccccc3)c2)SC(c2ccccc2)N1c1ccccc1Cl (stereo unspecified) , please?
1.99

Bench note: what log10 TGI did `O=C1C(=O)c2cc([N+](=O)[O-])ccc2-c2ccc([N+](=O)[O-])cc21` show?
0.42

So what does the record say about log10 TGI for `O=C1/C=C/[C@@H](O)[C@@H]2C[C@@H](O)C[C@H]2/C=C/CCC[C@H](CCOCc2ccccc2)O1` ?
-1.51

Would you mind telling me what log10 TGI value was observed for O=C(CC1(O)C(=O)Nc2c(Cl)cc(Cl)cc21)c1ccc(Br)cc1 (stereo unspecified) ?
1.49

====

# Test system: HS 578T breast
# Test Summary: NCI tumour cell line growth inhibition, 48 h
Result Type: TGI

Hi! What's the reported TGI for `CN(C)CCn1c(=O)c2ccc(NCCCN(C)CCCNc3ccc4c(=O)n(CCN(C)C)c(=O)n5c6ccccc6c(=O)c3c45)c3c(=O)c4ccccc4n(c1=O)c23` on HS 578T breast?
1.76 µM

Fill in the recorded TGI for this molecule, with HS 578T breast as test system: `COc1cc(-c2nccn2-c2ccc3ccccc3c2)cc(OC)c1OC`
71.5 µM

Kindly state the measured TGI obtained for CC(=O)OC1CN2CCC1CC2 (centres undefined) with HS 578T breast.
> 100 µM

Can you look up TGI on HS 578T breast for `COc1cc(C=C(c2ccc(N(C)C)cc2)c2ccc(N(C)C)cc2)c2ccccc2c1OC` ?
> 100 µM

Lab note: need TGI with HS 578T breast for entry `O=C1C=CC(O)(C#CCO)C=C1` , please look it up.
> 76.5 µM

Any idea what TGI came out for `CCCCCCCCCCCCc1ccsc1-c1ccc(-c2ccc(-c3sc(-c4cc(CCCCCCCCCCCC)c(-c5ccc(-c6ccc(-c7sccc7CCCCCCCCCCCC)s6)s5)s4)cc3CCCCCCCCCCCC)s2)s1` on HS 578T breast?
> 100 µM

====

# System: HOP-62 NSCLC
# Test Summary: NCI tumour cell line growth inhibition, 48 h
Result Type: TGI

Compound	Assay System	TGI
C=CC(=O)C#CC#CC/C=C\CCCCCCC	HOP-62 NSCLC	> 20.6 µM
COC(=O)Cc1cc2c(cc1C(=O)c1ccc(N)cc1)OCO2	HOP-62 NSCLC	> 100 µM
NC1=NC(=O)[C@H](Cc2c[nH]c3ccccc23)N1C(=O)OCc1ccccc1	HOP-62 NSCLC	> 100 µM
COc1ccc(-c2cn[nH]c2-c2cc(OC)c(OC)c(OC)c2)cc1OCc1ccccc1	HOP-62 NSCLC	14.1 µM
Cc1cc2c(O)c(c1)CN(Cc1ccccc1)Cc1cc(C)cc(c1O)CN(Cc1ccccc1)Cc1cc(C)cc(c1O)CN(Cc1ccccc1)C2	HOP-62 NSCLC	> 100 µM

Record request: TGI value, item `Cc1ccc(-n2c(O)c(C=N)c(=O)n(-c3ccc(C)cc3)c2=O)cc1`
> 100 µM

Sample `O=C(c1ccco1)c1nc2ccc(Cl)cc2[n+]([O-])c1C(F)(F)F` — what was its TGI?
> 100 µM

# input compound: `COc1nc(-c2c[nH]c3ccccc23)cnc1N` ; wanted: its TGI
> 100 µM

What does the data say about its TGI? Entry: CCOC(=O)C1=C(C)NC(=O)NC1c1ccc(N(CCCl)CCCl)cc1Cl (stereo not given)
28.5 µM

Consider the compound shown here: `O=C1C(=O)c2cc([N+](=O)[O-])ccc2-c2ccc([N+](=O)[O-])cc21` What is its recorded TGI?
5.87 µM
